target: T1, human GPC3-His protein (human, UniProt P51654 25-559); assay: ELISA, coated human GPC3, antibody 0.001 nM
T1 construct: Bought protein; also called human GPC3 protein; not shown: His tag
Measured OD450 nm, listed per entry for reference.
Expressed in OD450, but write only the number.

F2.152.3 human-murine chimeric antibody (antibody, human IgG1, kappa, V domains shown) VH: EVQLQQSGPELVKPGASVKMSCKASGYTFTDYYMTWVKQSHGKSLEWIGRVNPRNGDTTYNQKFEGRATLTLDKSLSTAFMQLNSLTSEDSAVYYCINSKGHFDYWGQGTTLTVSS VL: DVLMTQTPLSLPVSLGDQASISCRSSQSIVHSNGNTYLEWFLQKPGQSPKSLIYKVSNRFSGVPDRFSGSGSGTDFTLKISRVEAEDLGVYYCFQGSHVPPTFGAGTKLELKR ... 0.13

The reported OD450 nm of the binder F2.154.1 human-murine chimeric antibody (antibody, human IgG1, kappa, V domains shown) VH: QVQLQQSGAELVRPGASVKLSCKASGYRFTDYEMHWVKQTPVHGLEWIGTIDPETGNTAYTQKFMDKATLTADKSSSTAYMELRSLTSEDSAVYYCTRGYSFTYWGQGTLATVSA VL: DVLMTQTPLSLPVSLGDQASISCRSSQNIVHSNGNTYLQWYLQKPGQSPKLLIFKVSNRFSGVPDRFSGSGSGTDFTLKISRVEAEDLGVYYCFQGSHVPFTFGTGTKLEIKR was 0.13

The reported OD450 nm of the binder F3.81.19 human-murine chimeric antibody (antibody, human IgG1, kappa, V domains shown) VH: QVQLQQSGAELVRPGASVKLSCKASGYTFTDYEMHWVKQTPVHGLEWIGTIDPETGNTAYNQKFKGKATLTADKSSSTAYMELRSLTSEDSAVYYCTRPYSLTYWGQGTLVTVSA VL: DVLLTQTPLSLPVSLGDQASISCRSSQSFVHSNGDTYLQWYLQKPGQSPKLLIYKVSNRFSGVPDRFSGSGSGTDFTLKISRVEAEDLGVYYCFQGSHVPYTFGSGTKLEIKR was 0.28
